# procedureDetails: In vitro cytotoxicity to cell cultures, H-8
# Type: cell-based
# conditionInfo: human, h-8 cells; read-out: CD50, antiproliferative effect
propertyName: CC50

>>> result("Cc1cn([C@H]2C[C@H](F)[C@@H](CO)O2)c(=O)[nH]c1=S")
"≥ 800 µM"

====

# procedureDetails: In vitro cytotoxicity to cell cultures, HELFI
# Assay type: cell-based
# conditionInfo: human, helfi lung fibroblasts; read-out: CD50, antiproliferative effect
propertyName: CC50

>>> result("Cc1cn([C@H]2C[C@H](F)[C@@H](CO)O2)c(=O)[nH]c1=S")
"700 µM"

====

# testedSystem: DNA polymerase (Homo sapiens, UniProt P09884)
# Sequence (P09884 whole entry): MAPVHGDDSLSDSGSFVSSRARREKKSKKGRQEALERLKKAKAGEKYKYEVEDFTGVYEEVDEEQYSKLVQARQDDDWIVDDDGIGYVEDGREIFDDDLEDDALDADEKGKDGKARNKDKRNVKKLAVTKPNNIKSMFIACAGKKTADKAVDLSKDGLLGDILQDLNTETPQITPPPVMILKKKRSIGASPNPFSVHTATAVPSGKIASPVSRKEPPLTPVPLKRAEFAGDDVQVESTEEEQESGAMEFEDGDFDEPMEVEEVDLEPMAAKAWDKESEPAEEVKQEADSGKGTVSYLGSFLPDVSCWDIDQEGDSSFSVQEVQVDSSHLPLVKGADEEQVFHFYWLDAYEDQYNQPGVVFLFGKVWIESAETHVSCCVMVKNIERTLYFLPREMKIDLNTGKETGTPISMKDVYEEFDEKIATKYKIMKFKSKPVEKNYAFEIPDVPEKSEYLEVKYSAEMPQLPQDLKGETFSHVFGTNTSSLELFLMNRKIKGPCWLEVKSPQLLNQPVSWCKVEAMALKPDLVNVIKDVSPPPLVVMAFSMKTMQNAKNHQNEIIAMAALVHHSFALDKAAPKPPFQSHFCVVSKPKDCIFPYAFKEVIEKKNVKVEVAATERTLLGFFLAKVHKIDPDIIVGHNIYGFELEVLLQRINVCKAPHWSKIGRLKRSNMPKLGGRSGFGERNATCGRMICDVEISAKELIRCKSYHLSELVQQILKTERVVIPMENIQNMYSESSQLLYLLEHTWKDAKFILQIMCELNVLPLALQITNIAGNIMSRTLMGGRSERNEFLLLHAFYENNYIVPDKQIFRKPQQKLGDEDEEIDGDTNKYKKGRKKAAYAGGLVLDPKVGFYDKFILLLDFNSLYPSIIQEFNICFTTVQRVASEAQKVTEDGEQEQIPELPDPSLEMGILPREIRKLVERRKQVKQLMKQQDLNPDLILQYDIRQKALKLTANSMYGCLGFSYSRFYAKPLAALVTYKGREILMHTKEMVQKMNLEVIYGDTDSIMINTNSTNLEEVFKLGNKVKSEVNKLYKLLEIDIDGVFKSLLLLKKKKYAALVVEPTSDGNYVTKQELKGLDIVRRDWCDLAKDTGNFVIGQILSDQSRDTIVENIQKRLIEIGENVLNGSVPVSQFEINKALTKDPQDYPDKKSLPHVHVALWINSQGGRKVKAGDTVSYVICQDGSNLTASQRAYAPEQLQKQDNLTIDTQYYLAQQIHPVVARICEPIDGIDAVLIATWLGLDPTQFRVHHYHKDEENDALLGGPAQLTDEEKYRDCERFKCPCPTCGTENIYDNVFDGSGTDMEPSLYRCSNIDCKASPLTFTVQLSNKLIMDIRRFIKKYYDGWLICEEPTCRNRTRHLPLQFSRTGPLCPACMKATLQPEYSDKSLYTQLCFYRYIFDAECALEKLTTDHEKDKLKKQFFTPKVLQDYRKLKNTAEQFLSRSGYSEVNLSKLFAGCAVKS
# procedureDetails: Inhibition of cellular DNA polymerase (enzyme mainly responsible for cellular replication)
# conditionInfo: read-out: ID50 (concentration inhibiting the polymerase to the extent of 50%), DNA polymerase
# Procedure: For these investigations, the effect of the compound on the activity of HIV-RT as well as on the cellular DNA polymerase was determined using the methods described by Matthes et al., in Biochem. Biophys. Res. Commun. 148, 78 (1987). Different concentrations of 3'-fluoro-4-thiothymidine triphosphate were added to the enzyme preparations. […]
pIC50: −log10 of the molar value.
propertyName: pIC50

>>> numericreadout("Cc1cn([C@H]2C[C@H](F)[C@@H](COP(=O)(O)OP(=O)(O)OP(=O)(O)O)O2)c(=O)[nH]c1=S [3'-fluoro-4-thiothymidine triphosphate]")
3.85

====

# procedureDetails: In vitro cytotoxicity to cell cultures, REH
# Assay type: cell-based
# conditionInfo: human, reh cells; read-out: CD50, antiproliferative effect
propertyName: CC50 (µM)

>>> numericreadout("Cc1cn([C@H]2C[C@H](F)[C@@H](CO)O2)c(=O)[nH]c1=S")
500

====

# testedSystem: DNA polymerase β (Homo sapiens)
# procedureDetails: Inhibition of DNA polymerase β (cellular DNA repair enzyme)
# conditionInfo: read-out: ID50 (concentration inhibiting the polymerase to the extent of 50%), DNA polymerase β
propertyName: IC50 (µM)

>>> numericreadout("Cc1cn([C@H]2C[C@H](F)[C@@H](COP(=O)(O)OP(=O)(O)OP(=O)(O)O)O2)c(=O)[nH]c1=S [3'-fluoro-4-thiothymidine triphosphate]")
7

====

# procedureDetails: In vitro cytotoxicity to cell cultures, Molt-4
# Type: cell-based
# conditionInfo: human, molt-4 cells; read-out: CD50, antiproliferative effect
propertyName: CC50

>>> result("Cc1cn([C@H]2C[C@H](F)[C@@H](CO)O2)c(=O)[nH]c1=S")
"≥ 1000 µM"
